Target: T1, human GIP receptor (human) (UniProt P48546)
T1 sequence (looked up): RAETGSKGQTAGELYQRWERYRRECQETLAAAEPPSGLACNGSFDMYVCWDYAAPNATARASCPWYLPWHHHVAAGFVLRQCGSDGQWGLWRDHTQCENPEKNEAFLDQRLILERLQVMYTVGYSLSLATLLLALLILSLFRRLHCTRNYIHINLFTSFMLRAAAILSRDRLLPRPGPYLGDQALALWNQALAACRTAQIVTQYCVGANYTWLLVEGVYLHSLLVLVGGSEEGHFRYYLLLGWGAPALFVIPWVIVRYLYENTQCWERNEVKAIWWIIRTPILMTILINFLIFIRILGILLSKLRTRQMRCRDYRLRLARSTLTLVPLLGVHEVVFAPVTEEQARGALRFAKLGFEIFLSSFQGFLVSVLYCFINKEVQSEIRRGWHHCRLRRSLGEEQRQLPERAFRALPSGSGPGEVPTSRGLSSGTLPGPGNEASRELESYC
Experiment: cell-based or functional assay
Measured cAMP Rel EC50 (1% HSA) by item
Respond numerically; units are nM and should not be typed.

YXQGTXTSDXXIXLDXKAAXEFIEXLIEGGPSSGAPPPSGEEE (synthetic construct; SITE 2: note = 2-Aminoisobutyric Acid; SITE 6: note = alpha-methyl-2-fluoro-L-phenylalanine; SITE 10: note = 3-(4-Pyridyl)-L-alanine; SITE 11: note = alpha-methyl-L-serine; SITE 13: note = alpha-methyl-leucine; SITE 16: note = L-ornithine; SITE 17: note = Lysine is chemically mo) [Example 705] has a reported cAMP Rel EC50 (1% HSA) of 1.15
